Reported IC50 values for the following molecules.
- Test system: HIV-1 Ba-L and IIIB
- assay summary: Virus-cell fusion
- Type: cell-based
- settings: Human immunodeficiency virus 1, BAL|IIIB, read-out: IC50 against VCF

structure string	IC50
O=C(CCc1c[nH]c2ccccc12)NCCCCCC(=O)Nc1ccc(C(=O)N[C@@H](Cc2c[nH]c3ccccc23)C(=O)O)cc1OCc1ccc(Cl)cc1	13 to 17 µM
O=C(CCc1c[nH]c2ccccc12)NCCCCCC(=O)Nc1ccc(C(=O)N[C@@H](Cc2c[nH]c3ccccc23)C(=O)O)cc1OCCc1c[nH]c2ccccc12	13 to 17 µM
O=C(CCC(=O)Nc1ccc(C(=O)N[C@@H](Cc2c[nH]c3ccccc23)C(=O)O)cc1OCc1ccc(Cl)cc1)NCCOCCOCCOCCNC(=O)CCC(=O)Nc1ccc(C(=O)N[C@@H](Cc2c[nH]c3ccccc23)C(=O)O)cc1OCc1ccc(Cl)cc1	3 to 5 µM
O=C(CCC(=O)Nc1ccc(C(=O)N[C@@H](Cc2c[nH]c3ccccc23)C(=O)O)cc1OCCc1c[nH]c2ccccc12)NCCOCCOCCOCCNC(=O)CCC(=O)Nc1ccc(C(=O)N[C@@H](Cc2c[nH]c3ccccc23)C(=O)O)cc1OCCc1c[nH]c2ccccc12	3 to 5 µM

----------
- target system: gp41 hydrophobic pocket (Fe(envC)3) (Human immunodeficiency virus type 1 group M subtype B, UniProt P04578)
- assay summary: Surface plasmon resonance
- Type: binding, HIV-1
- settings: SPR 1:1 binding kinetic analysis, RUmax fixed

structure string	readout units	kd
O=C(CCC(=O)Nc1ccc(C(=O)N[C@@H](Cc2c[nH]c3ccccc23)C(=O)O)cc1OCc1ccc(Cl)cc1)NCCOCCOCCOCCNC(=O)CCC(=O)Nc1ccc(C(=O)N[C@@H](Cc2c[nH]c3ccccc23)C(=O)O)cc1OCc1ccc(Cl)cc1	s⁻¹	0.037
O=C(CCc1c[nH]c2ccccc12)NCCCCCC(=O)Nc1ccc(C(=O)N[C@@H](Cc2c[nH]c3ccccc23)C(=O)O)cc1OCCc1c[nH]c2ccccc12	s⁻¹	0.093
O=C(CCc1c[nH]c2ccccc12)NCCCCCC(=O)Nc1ccc(C(=O)N[C@@H](Cc2c[nH]c3ccccc23)C(=O)O)cc1OCc1ccc(Cl)cc1	s⁻¹	0.186

----------
- target system: gp41 hydrophobic pocket (Fe(envC)3) (Human immunodeficiency virus type 1 group M subtype B, UniProt P04578)
- assay summary: Surface plasmon resonance
- Format: binding, HIV-1
- settings: SPR 1:1 binding kinetic analysis, RUmax fixed

compound	readout units	kd
Nc1ccc(C(=O)N[C@@H](Cc2c[nH]c3ccccc23)C(=O)O)cc1OCCc1c[nH]c2ccccc12 [Compound 3, H2N-[Trp]-Trp-OH]	s⁻¹	0.834
Nc1ccc(C(=O)N[C@@H](Cc2c[nH]c3ccccc23)C(=O)O)cc1OCc1ccc(Cl)cc1 [Compound 4, H2N-[Phe4Cl]-Trp-OH]	s⁻¹	0.820
O=C(CCC(=O)Nc1ccc(C(=O)N[C@@H](Cc2c[nH]c3ccccc23)C(=O)O)cc1OCCc1c[nH]c2ccccc12)NCCOCCOCCOCCNC(=O)CCC(=O)Nc1ccc(C(=O)N[C@@H](Cc2c[nH]c3ccccc23)C(=O)O)cc1OCCc1c[nH]c2ccccc12	s⁻¹	0.060

# credit: paper PMC5260928
